Task for the reader: assign each of the following binders its reported SKW3 WT vs KO anti-mFc-647.
Target Entity: T1, human CD4 on the surface of SKW3 cells or human PBMCs (human, UniProt P01730 26-458)
T1 construct: whole, on cells; SKW3 CD4 knockout cells served as the negative cell line; also called hCD4; SKW3 WT
Procedure Text: FACS primary screen, non-clonal hybridoma supernatant, SKW3 vs SKW3 CD4 KO cells, anti-mouse Fc A647
Answers are plain numbers, in ratio.

Go through the list and state SKW3 WT vs KO anti-mFc-647 for each entry.
1. 75110_12H19A (antibody, V domains shown, Tested here as non-clonal hybridoma supernatant from AlivaMab Mouse Kappa mice (detected with anti-mouse Fc and anti-human kappa)) VH: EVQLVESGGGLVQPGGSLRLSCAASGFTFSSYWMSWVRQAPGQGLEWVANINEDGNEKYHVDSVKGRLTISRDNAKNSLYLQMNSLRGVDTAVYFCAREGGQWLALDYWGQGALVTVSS VL: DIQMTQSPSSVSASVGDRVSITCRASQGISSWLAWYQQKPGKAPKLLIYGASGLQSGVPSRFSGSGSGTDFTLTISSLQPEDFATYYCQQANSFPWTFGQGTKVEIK
2. 75110_04B08A (antibody, V domains shown, Tested here as non-clonal hybridoma supernatant from AlivaMab Mouse Kappa mice (detected with anti-mouse Fc and anti-human kappa)) VH: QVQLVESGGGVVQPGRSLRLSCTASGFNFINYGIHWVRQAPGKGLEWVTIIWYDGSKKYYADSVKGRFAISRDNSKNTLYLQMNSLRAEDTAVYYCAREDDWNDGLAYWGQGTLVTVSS VL: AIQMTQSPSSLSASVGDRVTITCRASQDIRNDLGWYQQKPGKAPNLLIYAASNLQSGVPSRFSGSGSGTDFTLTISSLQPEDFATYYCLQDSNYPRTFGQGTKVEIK
3. 75110_03C01A (antibody, V domains shown, Tested here as non-clonal hybridoma supernatant from AlivaMab Mouse Kappa mice (detected with anti-mouse Fc and anti-human kappa)) VH: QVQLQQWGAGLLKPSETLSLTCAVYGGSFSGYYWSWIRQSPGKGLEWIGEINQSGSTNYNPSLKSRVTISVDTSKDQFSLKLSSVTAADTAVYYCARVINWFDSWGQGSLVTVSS VL: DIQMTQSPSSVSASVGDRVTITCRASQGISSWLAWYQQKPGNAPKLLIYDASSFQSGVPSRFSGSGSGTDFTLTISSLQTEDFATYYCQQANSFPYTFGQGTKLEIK

Reply:
1. 5.2
2. 6.7
3. 8

Task item: # query: SKW3 WT vs KO anti-mFc-647 of entry 75110_02E08A (antibody, V domains shown, Tested here as non-clonal hybridoma supernatant from AlivaMab Mouse Kappa mice (detected with anti-mouse Fc and anti-human kappa)) VH: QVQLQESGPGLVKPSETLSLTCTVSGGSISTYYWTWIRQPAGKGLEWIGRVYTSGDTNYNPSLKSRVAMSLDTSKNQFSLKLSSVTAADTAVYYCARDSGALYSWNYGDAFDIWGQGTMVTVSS VL: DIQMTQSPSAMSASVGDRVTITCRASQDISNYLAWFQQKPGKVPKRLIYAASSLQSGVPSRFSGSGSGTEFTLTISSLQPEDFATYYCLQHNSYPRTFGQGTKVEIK
Reply: 8.4
